# Study System: ERK2 (Homo sapiens, UniProt P28482)
# Sequence (P28482 whole entry, species assumed): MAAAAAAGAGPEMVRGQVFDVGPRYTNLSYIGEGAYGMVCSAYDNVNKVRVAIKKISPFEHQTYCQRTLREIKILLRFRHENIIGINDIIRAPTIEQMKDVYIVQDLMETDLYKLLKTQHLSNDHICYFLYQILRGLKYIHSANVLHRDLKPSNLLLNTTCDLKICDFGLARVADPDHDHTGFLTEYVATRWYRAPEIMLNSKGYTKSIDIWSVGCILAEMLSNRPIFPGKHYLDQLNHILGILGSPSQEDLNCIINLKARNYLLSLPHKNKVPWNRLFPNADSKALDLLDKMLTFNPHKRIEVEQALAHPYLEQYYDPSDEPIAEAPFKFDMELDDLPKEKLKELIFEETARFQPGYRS
# Protocol Description: Kinase profiling ERK2
# Assay type: biochemical
# Condition Summary: 100 micromolar inhibitor concentration; 100 is no change
# binning rule on residual kinase activity, ERK2: range 1 = under 80, range 2 = from 80 up to 100, range 3 = 100 and over

O=C(Nc1nc2ccc(O)cc2s1)c1ccncc1 range 1

# bin label for O=C(Nc1nc2cc(O)ccc2s1)c1ccncc1
range 2

# bin label for O=C(Nc1nc2cc(O)ccc2s1)c1cccnc1
range 3

# bin label for O=C(Nc1nc2ccc(O)cc2s1)c1ccccn1
range 2

# bin label for CC(=O)Nc1ccccc1C(=O)Nc1nc2ccc(O)cc2s1
range 1

# bin label for CC(=O)Nc1nc2ccccc2s1
range 3

# bin label for COc1ccc2sc(NC(=O)c3ccc(NC(C)=O)cc3)nc2c1
range 3

====

# Study System: CDK9-Cyclin T1 (Homo sapiens)
# Sequence (P50750 whole entry): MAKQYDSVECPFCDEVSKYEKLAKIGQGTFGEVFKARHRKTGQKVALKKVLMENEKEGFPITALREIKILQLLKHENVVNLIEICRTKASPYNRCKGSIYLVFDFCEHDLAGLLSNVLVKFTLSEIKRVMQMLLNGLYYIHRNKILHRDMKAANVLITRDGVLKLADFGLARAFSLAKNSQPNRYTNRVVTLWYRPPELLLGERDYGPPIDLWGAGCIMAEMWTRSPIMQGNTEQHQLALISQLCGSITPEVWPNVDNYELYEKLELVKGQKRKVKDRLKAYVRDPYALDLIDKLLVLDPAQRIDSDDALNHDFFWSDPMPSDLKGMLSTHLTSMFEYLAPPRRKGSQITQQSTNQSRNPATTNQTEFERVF
# Sequence (O60563 whole entry partner): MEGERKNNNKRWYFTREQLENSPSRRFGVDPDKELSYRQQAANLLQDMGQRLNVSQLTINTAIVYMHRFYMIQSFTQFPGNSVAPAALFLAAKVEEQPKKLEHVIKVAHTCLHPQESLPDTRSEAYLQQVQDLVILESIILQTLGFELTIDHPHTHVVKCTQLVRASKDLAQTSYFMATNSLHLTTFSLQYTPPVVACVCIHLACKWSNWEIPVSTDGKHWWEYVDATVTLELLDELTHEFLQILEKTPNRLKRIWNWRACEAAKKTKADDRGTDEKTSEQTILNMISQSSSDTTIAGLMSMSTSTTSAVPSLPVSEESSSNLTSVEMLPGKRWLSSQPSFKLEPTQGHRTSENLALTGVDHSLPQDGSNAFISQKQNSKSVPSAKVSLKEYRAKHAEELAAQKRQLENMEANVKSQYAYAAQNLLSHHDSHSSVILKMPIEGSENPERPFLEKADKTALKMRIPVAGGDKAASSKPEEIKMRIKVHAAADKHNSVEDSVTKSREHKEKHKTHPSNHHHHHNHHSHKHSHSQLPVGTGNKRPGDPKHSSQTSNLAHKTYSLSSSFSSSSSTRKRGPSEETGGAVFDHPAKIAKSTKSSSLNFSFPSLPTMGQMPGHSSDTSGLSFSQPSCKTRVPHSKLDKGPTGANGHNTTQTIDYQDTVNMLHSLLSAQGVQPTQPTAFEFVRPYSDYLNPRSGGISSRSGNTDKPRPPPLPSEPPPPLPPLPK
# Protocol Description: Kinase profiling CDK9-Cyclin T1
# Format: biochemical
# Condition Summary: 100 micromolar inhibitor concentration; 100 is no change; read-out: residual kinase activity, CDK9-Cyclin T1
Threshold check on remaining activity at 100 µM: strictly below 90% is true; on or above 90% is false.

Look over these answered cases.
CC(=O)Nc1nc2cc(F)ccc2s1 true
CC(=O)Nc1nc2ccc(O)cc2s1 true

Is remaining activity at 100 µM strictly under 90% for the entry CC(=O)Nc1nc2ccc(C(F)(F)F)cc2s1 ?
true

Is remaining activity at 100 µM strictly under 90% for the entry CC(=O)Nc1nc2ccc(C#N)cc2s1 ?
true

Is remaining activity at 100 µM strictly under 90% for the entry CC(=O)Nc1nc2cc(C(F)(F)F)ccc2s1 ?
false

====

# Study System: TAO1 (Homo sapiens, UniProt Q7L7X3)
# Sequence (Q7L7X3 whole entry): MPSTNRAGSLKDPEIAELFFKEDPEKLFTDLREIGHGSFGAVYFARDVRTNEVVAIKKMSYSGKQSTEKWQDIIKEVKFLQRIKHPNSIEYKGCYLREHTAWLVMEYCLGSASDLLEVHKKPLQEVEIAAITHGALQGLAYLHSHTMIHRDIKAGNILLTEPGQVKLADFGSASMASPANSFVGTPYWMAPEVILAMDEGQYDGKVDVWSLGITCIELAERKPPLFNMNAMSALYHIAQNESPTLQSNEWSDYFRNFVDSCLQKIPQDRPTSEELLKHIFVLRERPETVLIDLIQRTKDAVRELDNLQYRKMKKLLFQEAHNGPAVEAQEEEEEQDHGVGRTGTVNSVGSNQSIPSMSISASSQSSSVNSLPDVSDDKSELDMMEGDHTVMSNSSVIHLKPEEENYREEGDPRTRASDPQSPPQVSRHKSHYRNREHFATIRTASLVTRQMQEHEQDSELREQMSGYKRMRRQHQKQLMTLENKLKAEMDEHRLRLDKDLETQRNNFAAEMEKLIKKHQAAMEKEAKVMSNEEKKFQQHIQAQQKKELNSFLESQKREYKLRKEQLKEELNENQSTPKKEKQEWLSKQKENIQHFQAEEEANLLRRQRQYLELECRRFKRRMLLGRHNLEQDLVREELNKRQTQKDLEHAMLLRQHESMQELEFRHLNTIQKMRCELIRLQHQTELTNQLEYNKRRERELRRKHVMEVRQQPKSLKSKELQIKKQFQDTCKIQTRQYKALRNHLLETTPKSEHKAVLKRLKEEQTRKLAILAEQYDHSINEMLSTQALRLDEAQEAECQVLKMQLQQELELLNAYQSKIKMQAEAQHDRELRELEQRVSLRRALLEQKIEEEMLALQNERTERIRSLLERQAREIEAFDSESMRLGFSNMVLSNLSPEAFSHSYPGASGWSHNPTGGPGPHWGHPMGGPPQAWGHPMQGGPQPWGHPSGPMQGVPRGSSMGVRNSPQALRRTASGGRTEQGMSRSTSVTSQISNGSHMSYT
# Protocol Description: Kinase profiling TAO1
# Assay type: biochemical
# Condition Summary: 100 micromolar inhibitor concentration; 100 is no change; read-out: residual kinase activity, TAO1
# Excerpt: Any value less that 25 is considered to be highly significant inhibition.
Consider the following compounds; for each one, report its remaining activity at 100 µM.

Some solved entries appear below for comparison.
CC(=O)Nc1nc2cc(F)ccc2s1 69%
CC(=O)Nc1nc2ccc(C#N)cc2s1 46%

Batch request: remaining activity at 100 µM per item, same order as input.
1. CC(=O)Nc1nc2cc(C(F)(F)F)ccc2s1
2. COc1ccc2sc(NC(C)=O)nc2c1
3. CC(=O)Nc1nc2ccc(O)cc2s1
4. CC(=O)Nc1nc2ccc(C(F)(F)F)cc2s1

["88%", "72%", "29%", "71%"]

====

Consider the following compounds; for each one, report its remaining activity at 100 µM.
# Study System: ULK1 (Homo sapiens, UniProt O75385)
# Sequence (O75385 whole entry, species assumed): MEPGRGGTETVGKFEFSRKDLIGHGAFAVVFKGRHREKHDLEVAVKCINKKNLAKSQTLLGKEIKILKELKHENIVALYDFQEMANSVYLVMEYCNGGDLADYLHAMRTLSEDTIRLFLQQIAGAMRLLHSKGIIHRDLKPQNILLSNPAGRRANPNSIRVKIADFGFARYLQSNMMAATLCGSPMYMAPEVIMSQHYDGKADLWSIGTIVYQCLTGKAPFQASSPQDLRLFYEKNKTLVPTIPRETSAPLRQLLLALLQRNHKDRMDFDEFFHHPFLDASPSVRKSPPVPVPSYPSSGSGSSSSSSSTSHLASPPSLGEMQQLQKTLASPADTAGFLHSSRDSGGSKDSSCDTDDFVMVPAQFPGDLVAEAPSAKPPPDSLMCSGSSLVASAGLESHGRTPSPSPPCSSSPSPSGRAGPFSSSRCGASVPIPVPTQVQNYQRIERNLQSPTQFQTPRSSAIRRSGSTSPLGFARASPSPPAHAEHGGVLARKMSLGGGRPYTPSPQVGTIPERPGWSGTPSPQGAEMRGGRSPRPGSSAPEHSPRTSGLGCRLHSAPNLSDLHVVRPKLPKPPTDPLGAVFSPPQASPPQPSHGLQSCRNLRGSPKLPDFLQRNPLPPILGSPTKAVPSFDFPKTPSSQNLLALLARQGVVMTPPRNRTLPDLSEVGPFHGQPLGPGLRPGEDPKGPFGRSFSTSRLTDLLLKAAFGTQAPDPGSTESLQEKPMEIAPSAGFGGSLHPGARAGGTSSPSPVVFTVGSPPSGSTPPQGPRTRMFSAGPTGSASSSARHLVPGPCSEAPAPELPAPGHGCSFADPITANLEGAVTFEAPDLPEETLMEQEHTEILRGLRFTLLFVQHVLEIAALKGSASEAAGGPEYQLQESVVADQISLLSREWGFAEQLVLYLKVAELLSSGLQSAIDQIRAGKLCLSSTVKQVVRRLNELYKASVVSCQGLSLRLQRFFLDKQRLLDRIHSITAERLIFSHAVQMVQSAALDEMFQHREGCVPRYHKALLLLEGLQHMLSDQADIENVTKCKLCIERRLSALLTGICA
# Protocol Description: Kinase profiling ULK1
# Type: biochemical
# Condition Summary: 100 micromolar inhibitor concentration; 100 is no change; read-out: residual kinase activity, ULK1

CC(=O)Nc1nc2ccc(C(F)(F)F)cc2s1 87%
CC(=O)Nc1nc2cc(C(F)(F)F)ccc2s1 91%
CC(=O)Nc1nc2ccc(C#N)cc2s1 92%
COc1ccc2sc(NC(C)=O)nc2c1 103%

Briefly, remaining activity at 100 µM measured for CC(=O)Nc1nc2cc(F)ccc2s1 : 83%

====

# Study System: SmMLCK (Homo sapiens)
# Sequence (Q15746 923-1914): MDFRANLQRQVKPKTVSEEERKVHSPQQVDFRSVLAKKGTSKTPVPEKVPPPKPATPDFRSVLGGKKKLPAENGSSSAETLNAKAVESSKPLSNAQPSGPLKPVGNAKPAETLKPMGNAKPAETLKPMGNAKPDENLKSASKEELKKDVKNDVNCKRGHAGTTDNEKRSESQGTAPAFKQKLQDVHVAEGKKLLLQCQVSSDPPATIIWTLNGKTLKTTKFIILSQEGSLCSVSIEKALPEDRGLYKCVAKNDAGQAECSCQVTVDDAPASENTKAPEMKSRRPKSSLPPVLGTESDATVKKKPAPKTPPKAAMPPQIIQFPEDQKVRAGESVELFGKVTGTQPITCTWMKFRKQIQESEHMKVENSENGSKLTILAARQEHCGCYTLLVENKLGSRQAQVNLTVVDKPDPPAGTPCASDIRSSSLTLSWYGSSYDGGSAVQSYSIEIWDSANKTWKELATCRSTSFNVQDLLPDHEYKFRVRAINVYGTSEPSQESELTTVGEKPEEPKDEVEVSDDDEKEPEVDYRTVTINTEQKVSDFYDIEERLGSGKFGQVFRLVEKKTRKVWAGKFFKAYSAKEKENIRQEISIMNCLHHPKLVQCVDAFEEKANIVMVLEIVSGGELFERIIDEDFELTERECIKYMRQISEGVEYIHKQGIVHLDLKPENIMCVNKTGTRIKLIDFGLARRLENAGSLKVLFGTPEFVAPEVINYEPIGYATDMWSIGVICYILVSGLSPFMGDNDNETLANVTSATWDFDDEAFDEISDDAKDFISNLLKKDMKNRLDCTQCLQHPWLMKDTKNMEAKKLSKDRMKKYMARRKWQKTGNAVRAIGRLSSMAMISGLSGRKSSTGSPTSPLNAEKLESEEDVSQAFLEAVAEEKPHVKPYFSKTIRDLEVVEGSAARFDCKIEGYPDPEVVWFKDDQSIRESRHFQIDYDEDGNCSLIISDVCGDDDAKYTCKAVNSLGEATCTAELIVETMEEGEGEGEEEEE
# Protocol Description: Kinase profiling SmMLCK
# Format: biochemical
# Condition Summary: 100 micromolar inhibitor concentration; 100 is no change
# binning rule on residual kinase activity, SmMLCK: 0 (below 50), 1 (50 to below 60), 2 (60 or more)

Look over these answered cases.
CC(=O)Nc1nc2ccc(F)cc2s1 2
O=C(Nc1nc2ccc(O)cc2s1)c1ccccn1 0
COC(=O)c1cccc(C(=O)Nc2nc3ccc(F)cc3s2)c1 1
O=C(Nc1nc2ccc(F)cc2s1)c1ccccc1 2
CC(=O)Nc1nc2ccccc2s1 2

# bin label for O=C(Nc1nc2cc(O)ccc2s1)c1cccnc1
1

# bin label for COc1ccc2sc(NC(=O)c3ccccc3)nc2c1
0

# bin label for O=C(Nc1nc2ccc(O)cc2s1)c1cccnc1
0

# bin label for CC(=O)Nc1nc2cc(C)ccc2s1
2

# bin label for O=C(Nc1nc2cc(O)ccc2s1)c1ccccc1
0
